In this section we review reported refractive index values for a set of compounds.
- assay.info: refractive index (Na D-line) (dimensionless)
- condition.set: 298.15 K; 101.33 kPa; Liquid; Standard Abbe refractometry
reported.property: refractive index

>>> experimental_value("CCCO [propan-1-ol]")
1.3836
>>> experimental_value("CCCOCCC [dipropyl ether]")
1.3784
>>> experimental_value("OCCO [1,2-ethanediol]")
1.4306
>>> experimental_value("O [water]")
1.3325
